# assayed target: human PAH with the R408W mutation (Homo sapiens, UniProt P00439, R408W)
# Construct: expressed in transfected cells
# Sequence (P00439 1-452 R408W): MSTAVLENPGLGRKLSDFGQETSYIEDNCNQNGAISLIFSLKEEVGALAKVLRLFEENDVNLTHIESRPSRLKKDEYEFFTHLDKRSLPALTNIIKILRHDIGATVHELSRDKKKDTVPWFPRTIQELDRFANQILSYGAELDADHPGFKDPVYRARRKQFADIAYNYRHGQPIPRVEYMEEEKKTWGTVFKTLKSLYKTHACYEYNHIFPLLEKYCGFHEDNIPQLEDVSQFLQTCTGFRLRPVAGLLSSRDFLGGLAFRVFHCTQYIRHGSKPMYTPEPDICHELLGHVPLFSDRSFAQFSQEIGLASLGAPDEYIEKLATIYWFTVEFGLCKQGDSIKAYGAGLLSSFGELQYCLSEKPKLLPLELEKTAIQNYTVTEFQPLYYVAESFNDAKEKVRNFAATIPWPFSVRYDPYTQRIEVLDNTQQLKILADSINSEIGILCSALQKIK
# assay remarks: Cell Based Phenylalanine Flux Assay
# test settings: A375 cells expressing human R408W PAH; 24 hrs compound incubation; 13C-Tyrosine by LC-MS; average where tested multiple times; read-out: AC50
measured quantity: AC50

molecule	assayed target	value measured
CC(C)(F)c1ncc(C(=O)N2CCc3[nH]cnc3[C@@H]2c2cc3ccccc3cn2)s1	human PAH with the R408W mutation (Homo sapiens, UniProt P00439, R408W)	1000 to 5000 nM
CC(C)(O)c1nc(C2CC2)c(C(=O)N2CCc3[nH]cnc3[C@H]2c2cc3ccccc3cn2)o1	human PAH with the R408W mutation (Homo sapiens, UniProt P00439, R408W)	< 500 nM
O=C(c1nnc(-c2cccnc2)o1)N1CCc2[nH]cnc2[C@H]1c1cc2ccccc2cn1	human PAH with the R408W mutation (Homo sapiens, UniProt P00439, R408W)	< 500 nM
O=C(c1oc(-c2ccccn2)nc1C1CC1)N1CCc2[nH]cnc2C1c1ccc2ccccc2n1 (stereo in doubt) [Example 44]	human PAH with the R408W mutation (Homo sapiens, UniProt P00439, R408W)	1000 to 5000 nM
C[C@H]1CN(C(=O)c2oc(C(C)(C)O)nc2C2CC2)[C@@H](c2cc3ccccc3cn2)c2nc[nH]c21	human PAH with the R408W mutation (Homo sapiens, UniProt P00439, R408W)	1000 to 5000 nM
O=C(c1nnc(-c2c(F)cccc2F)o1)N1CCc2[nH]cnc2C1c1ccc2ccccc2n1 (stereo in doubt)	human PAH with the R408W mutation (Homo sapiens, UniProt P00439, R408W)	< 500 nM
C[C@@H](O)c1nnc(C(=O)N2CCc3[nH]cnc3[C@H]2c2cc3ccccc3cn2)o1	human PAH with the R408W mutation (Homo sapiens, UniProt P00439, R408W)	500 to 1000 nM
O=C(c1nnc(-c2ncccc2F)o1)N1CCc2[nH]cnc2[C@H]1c1ncc2ccccc2n1	human PAH with the R408W mutation (Homo sapiens, UniProt P00439, R408W)	< 500 nM
CC(F)(F)c1ncc(C(=O)N2CCc3[nH]cnc3[C@@H]2c2cn3ccccc3n2)s1 (single isomer, unassigned)	human PAH with the R408W mutation (Homo sapiens, UniProt P00439, R408W)	> 5000 nM
Cn1nccc1-c1nnc(C(=O)N2CCc3[nH]cnc3[C@@H]2c2ncc3ccccc3n2)o1	human PAH with the R408W mutation (Homo sapiens, UniProt P00439, R408W)	1000 to 5000 nM
O=C(c1nnc(-c2cccnc2)o1)N1CCc2[nH]cnc2[C@H]1c1ncc2ccccc2n1	human PAH with the R408W mutation (Homo sapiens, UniProt P00439, R408W)	< 500 nM
O=C(CC1(O)CCC1)N1CCc2[nH]cnc2C1c1ccc2ccccc2n1 (stereo in doubt) [Example 59]	human PAH with the R408W mutation (Homo sapiens, UniProt P00439, R408W)	< 500 nM
O=C(c1oc(C2CC(F)(F)C2)nc1C(F)F)N1CCc2[nH]cnc2C1c1ccc2ccccc2n1 (stereo in doubt) [Example 71]	human PAH with the R408W mutation (Homo sapiens, UniProt P00439, R408W)	< 500 nM
O=C(c1cnn2ccccc12)N1CCc2[nH]cnc2[C@@H]1c1cn2ccccc2n1	human PAH with the R408W mutation (Homo sapiens, UniProt P00439, R408W)	> 5000 nM
Cc1nc(C(C)(C)O)oc1C(=O)N1C[C@H](C)c2[nH]cnc2[C@@H]1c1cc2ccccc2cn1	human PAH with the R408W mutation (Homo sapiens, UniProt P00439, R408W)	> 5000 nM
